# Test system: ACHN renal
# Protocol summary: NCI tumour cell line growth inhibition, 48 h; in the data active = GI50 below about 0.43 µM; inactive = the rest
Classes used: active, inactive

Compound: CCCc1cc(O)c2c3c(c(=O)oc2c1)CN(C)CC3
Cat: inactive
//
Compound: Nc1ncnc2c1ncn2Cc1ccc(C23CC4CC(CC(C4)C2)C3)c(OCc2cc(F)c(F)cc2F)c1
Cat: inactive
//
Compound: COc1cccc(C2C3=C(COC3=O)N(CCO)c3cc(OC)ccc32)c1 (configuration not stated)
Cat: active
//
Compound: CN(CCCCCl)P(=O)(OCc1ccc([N+](=O)[O-])o1)OCC1OC(n2ccc(N)nc2=O)C(F)(F)C1O (configuration not stated)
Cat: active
//
Compound: Clc1cc2c(cc1Cl)Oc1cc(Cl)c(Cl)cc1O2
Cat: inactive
//
Compound: N/C(=C\C(=O)n1nc(-c2ccccc2)cc1N)c1ccccc1
Cat: inactive
//
Compound: COc1cc(C(=O)N2N=C(c3ccc(S(C)(=O)=O)cc3)CC2c2ccco2)cc(OC)c1OC (configuration not stated)
Cat: inactive

---

# Test system: A549 NSCLC
# Protocol summary: NCI tumour cell line growth inhibition, 48 h
Attribute: TGI

Compound: O=C1CCCC2C(O)CCC[C@H]12 (stereo partly specified)
TGI: > 100 µM
--
Compound: O=C(N/N=C(/COc1ccc(Cl)cc1)N=Cc1cccnc1)c1ccncc1
TGI: > 100 µM
--
Compound: CCOC(O)(NC(=O)C(C(F)(F)F)C(F)(F)F)C(F)(F)F (stereo unspecified)
TGI: > 100 µM
--
Compound: Fc1ccc(-c2nn3c(-c4ccc(F)c(Cl)c4)nnc3s2)cc1
TGI: > 50 µM
--
Compound: COc1ccc(NC(=O)CC(=O)N2N=C(c3ccccc3)C(N=Nc3ccc(S(=O)(=O)CCOS(=O)(=O)O)cc3)C2=O)cc1 (stereo unspecified)
TGI: > 100 µM
--
Compound: O=C1CS(=O)(=O)C(c2cccc(Oc3ccccc3)c2)N1c1cccc(Cl)c1 (stereo unspecified)
TGI: > 100 µM
--
Compound: CCCCCc1nc2c(c3c1CCCC3)CCCC2
TGI: 64 µM
--
Compound: COc1cc2c(cc1O)-c1c(cnn1-c1ccc([N+](=O)[O-])cc1)CCC2
TGI: 42.4 µM
--
Compound: Nc1nc(N)c(Cn2ccnc2)c(=O)[nH]1
TGI: > 100 µM
--
Compound: COc1cc(-c2cc(=O)c3c(OC)c(OC)c(OC)cc3o2)c(OC)c(OC)c1OC
TGI: > 75 µM
--
Compound: CCOc1ccc(Nc2nc3c(s2)C(=O)c2ccccc2C3=O)cc1
TGI: 44.3 µM
--
Compound: Oc1ccc(CN2CCC(N3CCOCC3)CC2)c2cccnc12
TGI: > 100 µM
--
Compound: CCCCCCCCCCCCCCCc1ccc(OCC(O)CO)cc1 (stereo unspecified)
TGI: 50.1 µM
--
Compound: Cc1cc(NS(=O)(=O)c2ccc(NC(=O)c3ccc4[nH]c5ccccc5c(=O)c4c3)cc2)no1
TGI: > 100 µM
--
Compound: CC(=O)N1CN2C(=O)CCC2c2ccccc21 (stereo unspecified)
TGI: > 100 µM
--
Compound: c1ccc2c(c1)sc1c3cnccc3ccc21
TGI: > 100 µM
--
Compound: CS(=O)(=O)OC1CN2CCC1CC2 (stereo unspecified)
TGI: > 100 µM
--
Compound: Nc1ccc2nc(NCc3ccc(F)cc3)cnc2c1
TGI: > 100 µM
--
Compound: O=c1[nH]cnc2c1sc1nc3ccccc3n12
TGI: > 100 µM
--
Compound: CCOC(=O)c1c(-c2ccccc2)oc(-c2ccccc2)c1C(=O)OCC
TGI: > 100 µM
--
Compound: [Cl][Sn]([Cl])([c]1ccccc1)[c]1ccccc1
TGI: 39.2 µM
--
Compound: CN(C)c1ccc(/C=C(\NC(=O)c2ccccc2)C(=O)NCC(=O)O)cc1
TGI: > 100 µM
--
Compound: COc1cccc(C2C3=C(COC3=O)N(CCO)c3cc(OC)ccc32)c1 (stereo unspecified)
TGI: > 100 µM
--
Compound: Cc1nc(-c2ccccc2)c(Cc2ccccc2O)c(=O)[nH]1
TGI: > 100 µM
--
Compound: N#CCCN(c1ccc(/C=C2\N=C(Cc3ccccc3)OC2=O)cc1)S(=O)(=O)c1ccccc1
TGI: > 100 µM
--
Compound: O=C(C=P(c1ccccc1)(c1ccccc1)c1ccccc1)c1cccc(-c2cccc([N+](=O)[O-])c2)c1
TGI: > 100 µM
--
Compound: C#CCNC(=O)NCCCC(NC(C)=O)C(=O)NCc1ccccc1 (stereo unspecified)
TGI: > 100 µM
--
Compound: CC(C)c1c(C(=O)Nc2ccccc2)c(-c2ccccc2)c(-c2ccc(F)cc2)n1CC[C@@H]1CC=CC(=O)O1
TGI: 4.6 µM
--
Compound: O=C(O)c1cc(=O)[nH]c(SCc2ccccc2)n1
TGI: > 100 µM
--
Compound: CCOc1ccc(-c2cnnn2-c2nonc2-n2cccc2)cc1
TGI: > 100 µM
--
Compound: CN(C)Cc1cc(N=Nc2cccc(Cl)c2)ccc1O
TGI: 32.2 µM
--
Compound: COc1ccc(/C=C/c2sc3ccccc3[n+]2CCCCI)cc1OC
TGI: > 10 µM
--
Compound: CCN(CC)c1ccc(/C=C2/C[N+](C)(C)C/C(=C/c3ccc(N(CC)CC)cc3)C2=O)cc1
TGI: > 100 µM
--
Compound: CC(=O)c1c(SCCN2CCCC2)n(-c2ccccc2)c(=S)n(-c2ccccc2)c1=O
TGI: 15.1 µM
--
Compound: C=C1[C@H](OC(=O)C(C)C)[C@]23CC4(O)[C@@H]5[C@@]6(C)CCC[C@]57C([C@@H]2C[C@@]1(O)[C@H](O)[C@@H]73)N4C6
TGI: > 100 µM
--
Compound: CC/C(=C(/c1ccc(OCCN(C)C)cc1)c1ccc(OC(=O)CCC(=O)c2c(C)[nH]c(/C=C3\N=C(c4ccc[nH]4)C=C3OC)c2C)cc1)c1ccccc1
TGI: 10.6 µM
--
Compound: CCN(CC)CCCC(C)Nc1ccnc2cc3ccccc3cc12 (stereo unspecified)
TGI: > 100 µM
--
Compound: Cc1oc2c(C)c3oc(=O)cc(C)c3cc2c1CNC(=O)[C@@H]1OCCOCCOCCOCCOCCOC1C(=O)O (stereo partly specified)
TGI: > 100 µM
--
Compound: CCN(CC)CCCn1cnc2ncccc2c1=O
TGI: > 100 µM
--
Compound: O=C1N(c2ccccc2)C2(c3ccccc3)CC3CCCC13S2 (stereo unspecified)
TGI: > 100 µM
--
Compound: N#CC(c1ccnc(Cl)n1)c1nc2ccccc2s1 (stereo unspecified)
TGI: 52.4 µM
